- System: GM3
- Assay Method Text: GM3 Elisa assay
- Format: cell-based
- Details: Table 3 (IC 50 Values); B16-FO cells; read-out: IC50_uM_Mean
pIC50: −log10 of the molar value.
Recorded Metric: pIC50

Compound: COc1ccc([C@@H](O)[C@@H](CN2CCCC2)NC(=O)Cc2ccc(OC(F)(F)F)cc2)cc1F [Compound 342]
Recorded Metric: pIC50
Readout Value: 6.00 to 7.00
--
Compound: COc1ccc(C(=O)CCCCCC(=O)N[C@H](CN2CCCC2)[C@H](O)c2ccc(OC)c(F)c2)cc1 [Compound 345]
Recorded Metric: pIC50
Readout Value: ≥ 7.00
--
Compound: CCCCOc1ccc([C@@H](O)[C@@H](CN2CC[C@@H](F)C2)NC(=O)CCCCCOCCF)cc1 [Compound 660]
Recorded Metric: pIC50
Readout Value: 6.00 to 7.00
--
Compound: CCCCCCCC(=O)N[C@H](Cn1ccnc1)[C@H](O)c1ccc2c(c1)OCCO2 [Compound 507]
Recorded Metric: pIC50
Readout Value: 6.00 to 7.00
--
Compound: COc1ccc(C(=O)CCCCCC(=O)N[C@H](CN2C(C)CCCC2C)[C@H](O)c2ccc3c(c2)OCCO3)cc1 (some centres unmarked) [Compound 602]
Recorded Metric: pIC50
Readout Value: 5.00 to 5.52
--
Compound: COc1ccc(C(=O)CCCCCC(=O)N[C@H](CN(CC2CC2)CC2CC2)[C@H](O)c2ccc3c(c2)OCCO3)cc1 [Compound 464]
Recorded Metric: pIC50
Readout Value: 5.00 to 5.52
--
Compound: O=C(N[C@H](CN1CCCC1)[C@H](O)c1ccc(Cl)cc1)OCc1ccccc1 [Compound 379]
Recorded Metric: pIC50
Readout Value: 6.00 to 7.00
--
Compound: CCCCCCOc1ccc([C@@H](O)[C@@H](CN2CC[C@H](O)C2)NC(=O)CCCCC(=O)c2ccc(OC)cc2)cc1 [Compound 368]
Recorded Metric: pIC50
Readout Value: ≥ 7.00
--
Compound: COCCOCCOc1ccc([C@@H](O)[C@@H](CN2CCCC2)NC(=O)CCCCC(=O)c2ccc(OC)cc2)cc1 [Compound 415]
Recorded Metric: pIC50
Readout Value: 6.00 to 7.00
--
Compound: COc1ccc(C(=O)CCCCC(=O)N[C@H](CN2CCCC2)[C@H](O)c2ccc(OC[C@H](C)CO)cc2)cc1 [Compound 439]
Recorded Metric: pIC50
Readout Value: 6.00 to 7.00
--
Compound: COc1ccc(C(=O)CCCCC(=O)N[C@H](CN2CCCC2)[C@H](O)c2ccc(OCCOc3c(C)cccc3C)cc2)cc1 [Compound 373]
Recorded Metric: pIC50
Readout Value: ≥ 7.00
--
Compound: O=C(Cc1ccc(OC(F)(F)F)cc1)N[C@H](CN1CCCC1)[C@H](O)c1ccc(OCc2ccccc2)cc1 [Compound 702]
Recorded Metric: pIC50
Readout Value: ≥ 7.00
--
Compound: COc1ccc(C(=O)CCCCCC(=O)N[C@H](CN2CC[C@@H](O)C2)[C@H](O)c2ccc3c(c2)OCCO3)cc1 [Compound 518]
Recorded Metric: pIC50
Readout Value: 6.00 to 7.00
--
Compound: O=C(CCCCOCC(F)(F)F)N[C@H](CN1CCCC1)[C@H](O)c1ccc(OCc2ccccc2)cc1 [Compound 647]
Recorded Metric: pIC50
Readout Value: 6.00 to 7.00

----------
- System: GM3
- Assay Method Text: GM3 Elisa assay
- Format: cell-based
- Details: Table 3 (IC 50 Values); B16-FO cells; read-out: IC50_uM_Mean
pIC50: −log10 of the molar value.

Molecule: Cc1noc(CCCCC(=O)NC(CN2CCCC2)C(O)c2ccc3c(c2)OCCO3)n1 (stereo not shown) [Compound 652]
pIC50: 5.00 to 5.52
--
Molecule: O=C(N[C@H](CN1CCCC1)[C@H](O)c1ccc2c(c1)OCCO2)C1CC[C@@H](C(=O)c2ccc(F)cc2)C1 (stereo partly shown) [Compound 635]
pIC50: 5.00 to 5.52
--
Molecule: COc1ccc(OCCC(=O)N[C@H](CN2CCCCC2C)[C@H](O)c2ccc3c(c2)OCCO3)cc1 (stereo partly shown) [Compound 606]
pIC50: 5.00 to 5.52
--
Molecule: COc1ccc(OCCC(=O)N[C@H](CN2CC(O)C2)[C@H](O)c2ccc3c(c2)OCCO3)cc1 [Compound 601]
pIC50: 5.00 to 5.52
--
Molecule: COCCOc1ccc(C(=O)CCCCC(=O)N[C@H](CN2CC[C@H](O)C2)[C@H](O)c2ccc(OC(C)C)cc2)cc1 [Compound 740]
pIC50: ≥ 7.00
--
Molecule: COc1ccc([C@@H](O)[C@@H](CO)NC(=O)OCc2ccccc2)c(OC)c1 [Compound 352]
pIC50: 5.00 to 5.52
--
Molecule: O=C(CCCC(=O)c1ccc(F)cc1)N[C@H](CN1CCCC1)[C@H](O)c1ccc2c(c1)OCCO2 [Compound 639]
pIC50: 6.00 to 7.00

----------
- Tested on: GM3
- Assay Method Text: GM3 Elisa assay
- Format: cell-based
- Details: Table 3 (IC 50 Values); B16-FO cells; read-out: IC50_uM_Mean
Recorded Metric: IC50

Molecule: O=C(CCOc1ccc(F)cc1)N[C@H](CN1C2CCC1CC2)[C@H](O)c1ccc2c(c1)OCCO2 [Compound 473]
Readout Value: ≤ 100 nM

Molecule: CCCCCCOc1ccc([C@@H](O)[C@@H](CN2CC[C@@H](F)C2)NC(=O)CCCCCC(=O)c2ccc(OC)cc2)cc1 [Compound 371]
Readout Value: ≤ 100 nM

Molecule: COc1ccc(C(=O)CCCCCC(=O)N[C@H](CN2CCC2)[C@H](O)c2ccc3c(c2)OCCO3)cc1 [Compound 603]
Readout Value: 100 to 1000 nM

Molecule: CCCCCCCC(=O)N[C@H](CN1CC[C@H](F)C1)[C@H](O)c1ccc2c(c1)OCCO2 [Compound 510]
Readout Value: 3000 to 10000 nM

Molecule: COCCOc1ccc(C(=O)CCCCC(=O)N[C@H](CN2CCCC2)[C@H](O)c2ccc(OC(C)C)cc2)cc1 [Compound 453]
Readout Value: ≤ 100 nM

Molecule: COCCc1ccc([C@@H](O)[C@@H](CN2CCCC2)NC(=O)CCOc2ccc(OC)cc2)cc1 [Compound 356]
Readout Value: 1000 to 3000 nM

Molecule: COCCOCCOc1ccc([C@@H](O)[C@@H](CN2CCCC2)NC(=O)CCOc2ccc(OC)cc2)cc1 [Compound 713]
Readout Value: 100 to 1000 nM

----------
molecules and their reported pIC50
- Tested on: GM3
- Assay Method Text: GM3 Elisa assay
- Format: cell-based
- Details: Table 3 (IC 50 Values); B16-FO cells; read-out: IC50_uM_Mean
pIC50: −log10 of the molar value.
Recorded Metric: pIC50

Molecule: COc1ccc(OCCC(=O)N[C@H](CN2CCCC2)[C@H](O)c2ccccc2OC)cc1
Readout Value: 6.00 to 7.00

Molecule: COc1ccc(OCCC(=O)N[C@H](CN2CC[C@H](O)C2)[C@H](O)c2ccc3c(c2)OCCO3)cc1
Readout Value: 6.00 to 7.00

Molecule: COc1ccc(OCCC(=O)N[C@H](CN2CCC(C)(C)C2)[C@H](O)c2ccc3c(c2)OCCO3)cc1
Readout Value: 5.00 to 5.52

Molecule: COc1ccc(C(=O)CCCCCC(=O)N[C@H](CN2CCCC2)[C@H](O)c2ccc3c(c2)OC(F)(F)C(F)(F)O3)cc1
Readout Value: 6.00 to 7.00

Molecule: CCCCCCCC(=O)N[C@H](CN1CCCC1)[C@H](O)c1ccc(Cl)cc1
Readout Value: 5.52 to 6.00

Molecule: Cc1ccc([C@@H](O)[C@@H](CN2CCCC2)NC(=O)Cc2ccc(OC(F)(F)F)cc2)cc1F
Readout Value: 6.00 to 7.00

Molecule: CCCCOc1ccc([C@@H](O)[C@@H](CN2CC[C@H](O)C2)NC(=O)CCCCCOC2CCC2)cc1
Readout Value: 6.00 to 7.00

Molecule: CCCOC1CC(C[C@@H](NC(=O)CCOc2ccc(OC)cc2)[C@H](O)c2ccc3c(c2)OCCO3)C1 (some centres unmarked)
Readout Value: 5.00 to 5.52

Molecule: COCCOc1ccc(C(=O)CCCC(=O)N[C@H](CN2CCCC2)[C@H](O)c2ccc3c(c2)OCCO3)cc1
Readout Value: ≥ 7.00

Molecule: COc1ccc(C(=O)CCCC(=O)N[C@H](CN2CCCC2)[C@H](O)c2ccc(-c3ccccc3)cc2)cc1
Readout Value: 5.52 to 6.00

Molecule: O=C(CC(F)(F)F)N[C@H](CN1CCCC1)[C@H](O)c1ccc2c(c1)OCCO2
Readout Value: 5.00 to 5.52

Molecule: Cc1noc(CCCCC(=O)N[C@H](CN2CC[C@@H](F)C2)[C@H](O)c2ccc3c(c2)OCCO3)n1
Readout Value: 5.00 to 5.52

Molecule: CCCCCCCC(=O)N[C@H](CN1CCCC(C)C1)[C@H](O)c1ccc2c(c1)OCCO2 (some centres unmarked)
Readout Value: 5.00 to 5.52

Molecule: CCCCOc1ccc([C@@H](O)C(CN2CC[C@H](O)C2)NC(=O)CCCCCCCOC)cc1 (some centres unmarked)
Readout Value: ≥ 7.00

Molecule: COc1ccc(OCCOc2ccc([C@@H](O)C(CN3CCCC3)NC(=O)CCCCC(=O)c3ccc(OC)cc3)cc2)cc1 (some centres unmarked)
Readout Value: ≥ 7.00

Molecule: COc1ccc(OCCCC(=O)N[C@H](CN2CC[C@@H](F)C2)[C@H](O)c2ccc(OC(C)C)cc2)cc1
Readout Value: 6.00 to 7.00

Molecule: O=C(CCCCCC(F)(F)C(F)(F)F)N[C@H](CN1CCCC1)[C@H](O)c1ccc2c(c1)OCCO2
Readout Value: 5.52 to 6.00

Molecule: COc1ccc(C(=O)CCCCCC(=O)N[C@H](CNC2CCC2)[C@H](O)c2ccc3c(c2)OCCO3)cc1
Readout Value: 5.52 to 6.00

Molecule: COc1ccc(OCCC(=O)N[C@H](CN2CCCC2)[C@H](O)c2sccc2C)cc1
Readout Value: 6.00 to 7.00

Molecule: COc1cc([C@@H](O)[C@@H](CN2CCCC2)NC(=O)CCCCCC(C)=O)cc(OC)c1OC
Readout Value: 5.00 to 5.52

Molecule: CCCCCCCC(=O)N[C@H](CC1CC(OCCC)C1)[C@H](O)c1ccc2c(c1)OCCO2 (some centres unmarked)
Readout Value: 5.00 to 5.52

Molecule: COc1ccc(C(=O)CCCCCC(=O)N[C@H](CN2CCCC2)[C@H](O)c2ccc(OCc3ccccc3)cc2)cc1
Readout Value: ≥ 7.00

Molecule: COc1ccc(C(=O)CCCCC(=O)N[C@H](CN2CCCC2)[C@H](O)c2ccc(O)cc2)cc1
Readout Value: 6.00 to 7.00

Molecule: CCCCCCCC(=O)N[C@H](CN1CCCC1)[C@H](O)c1sccc1C
Readout Value: 6.00 to 7.00

Molecule: COCCOc1ccc(C(=O)CCCCC(=O)N[C@H](CN2CCCC2)[C@H](O)c2ccc3c(c2)OCCO3)cc1
Readout Value: ≥ 7.00

Molecule: COCCc1ccc([C@@H](O)[C@@H](CN2CCCC2)NC(=O)CCCCC(=O)c2ccc(OC)cc2)cc1
Readout Value: 6.00 to 7.00

Molecule: CCCCCCCC(=O)N[C@H](CN1CCCC1)[C@H](O)c1ccc2c(c1)OC(F)(F)O2
Readout Value: 5.00 to 5.52

Molecule: COc1ccc(C(=O)CCCCC(=O)N[C@H](CN2CCCC2)[C@H](O)c2ccc(OCCCC(F)(F)F)cc2)cc1
Readout Value: ≥ 7.00

Molecule: COc1ccc(OCCC(=O)N[C@H](CN2CCCC2)[C@H](O)c2ccc(OC)c(Cl)c2)cc1
Readout Value: ≥ 7.00
